# SYSTEM NAME: Substance-P receptor (Cavia porcellus)
# PROTOCOL SUMMARY: Inhibitory activity against Neurokinin 1 (NK1) receptor from guinea pig lung
PROPERTY: pIC50
Give bare numbers, as −log10 of the molar value.

Answered cases to consult:
SMI	SYSTEM NAME	PROPERTY	RESULT NUMBER
COc1cc(C(=O)N2CO[C@](CCN3CCC(C(N)=O)(c4ccccc4)CC3)(c3ccc(F)cc3)C2)cc(OC)c1OC	Substance-P receptor (Cavia porcellus)	pIC50	7.57
COc1cc(C(=O)N2CO[C@](CCN3CCN(c4ccc(C(C)=O)cc4)CC3)(c3ccc(Cl)c(Cl)c3)C2)cc(OC)c1OC	Substance-P receptor (Cavia porcellus)	pIC50	7.74
COc1cc(C(=O)N2CO[C@](CCN3CCC(C(N)=O)(c4ccccc4)CC3)(c3ccc(Cl)cc3)C2)cc(OC)c1OC	Substance-P receptor (Cavia porcellus)	pIC50	7.57

Would you kindly look at the next entry?
Dear colleague, I am looking for the recorded pIC50 of the following compound: COc1cc(C(=O)N2CO[C@](CCN3CCC(C(N)=O)(c4ccccc4)CC3)(c3ccc(F)c(F)c3)C2)cc(OC)c1OC
8.00

---

# SYSTEM NAME: Substance-P receptor (Cavia porcellus, UniProt P30547)
# Sequence (P30547 whole entry): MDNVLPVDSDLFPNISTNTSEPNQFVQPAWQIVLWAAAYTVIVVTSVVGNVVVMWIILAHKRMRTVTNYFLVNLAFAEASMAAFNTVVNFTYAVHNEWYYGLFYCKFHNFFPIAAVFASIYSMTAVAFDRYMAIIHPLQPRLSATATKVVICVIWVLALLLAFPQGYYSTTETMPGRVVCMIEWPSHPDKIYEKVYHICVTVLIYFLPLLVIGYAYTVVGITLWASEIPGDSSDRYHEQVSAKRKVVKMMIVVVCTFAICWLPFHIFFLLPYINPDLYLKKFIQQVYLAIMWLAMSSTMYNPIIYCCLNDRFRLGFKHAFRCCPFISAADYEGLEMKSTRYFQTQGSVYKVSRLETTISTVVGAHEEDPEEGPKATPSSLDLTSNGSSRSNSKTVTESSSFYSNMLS
# PROTOCOL SUMMARY: ChEBML_144914
PROPERTY: IC50 (nM)
Numbers only, in nM.

Answered cases to consult:
MOLECULE	RESULT NUMBER
COc1cc(C(=O)N2CO[C@](CCN3CCC(C(=O)N(C)C)(c4ccccc4)CC3)(c3ccc(F)c(F)c3)C2)cc(OC)c1OC	27
COc1cc(C(=O)N2CO[C@](CCN3CCC4(CC3)c3ccccc3C[S+]4[O-])(c3ccc(F)c(F)c3)C2)cc(OC)c1OC (stereo partly drawn)	16

Would you kindly look at the next entry?
Dear colleague, I am looking for the recorded IC50 of the following molecule: COc1cc(C(=O)N2CO[C@](CCN3CCC4(CC3)NC(=O)Cc3ccccc34)(c3ccc(F)c(F)c3)C2)cc(OC)c1OC
28

---

# SYSTEM NAME: Substance-K receptor (Cavia porcellus)
# Sequence (Q64077 whole entry): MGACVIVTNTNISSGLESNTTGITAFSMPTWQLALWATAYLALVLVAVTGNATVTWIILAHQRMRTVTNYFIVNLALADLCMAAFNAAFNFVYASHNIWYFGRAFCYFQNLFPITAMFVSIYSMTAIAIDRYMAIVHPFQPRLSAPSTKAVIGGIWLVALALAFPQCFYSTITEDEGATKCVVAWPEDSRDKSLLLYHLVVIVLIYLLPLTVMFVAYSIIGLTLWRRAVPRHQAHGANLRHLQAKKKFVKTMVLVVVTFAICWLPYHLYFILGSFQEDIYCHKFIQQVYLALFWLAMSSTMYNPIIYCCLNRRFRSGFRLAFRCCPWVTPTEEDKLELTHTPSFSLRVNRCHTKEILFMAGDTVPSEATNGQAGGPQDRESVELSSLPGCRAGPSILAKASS
# PROTOCOL SUMMARY: Inhibitory activity against Neurokinin 2 (NK2) receptor from guinea pig ileum
I'd appreciate it if you could supply pIC50 values for the items below.
Answers are plain numbers, as −log10 of the molar value.

COMPOUND	SYSTEM NAME	pIC50
COc1cc(C(=O)N2CO[C@](CCN3CCC(C(=O)N(C)C)(c4ccccc4)CC3)(c3ccc(Cl)cc3)C2)cc(OC)c1OC	Substance-K receptor (Cavia porcellus)	8.33
COc1cc(C(=O)N2CO[C@](CCN3CCN(c4ccc(C(C)=O)cc4)CC3)(c3ccc(Cl)c(Cl)c3)C2)cc(OC)c1OC	Substance-K receptor (Cavia porcellus)	7.13
COc1cc(C(=O)N2CO[C@](CCN3CCC4(CC3)C[S+]([O-])c3ccccc34)(c3ccc(Cl)c(Cl)c3)C2)cc(OC)c1OC (some centres undefined)	Substance-K receptor (Cavia porcellus)	8.14

Test system Substance-K receptor (Cavia porcellus); read-out pIC50; what value for COc1cc(C(=O)N2CO[C@](CCN3CCC(C(=O)N4CCOCC4)(c4ccccc4)CC3)(c3ccc(Cl)c(Cl)c3)C2)cc(OC)c1OC ?
7.28
